Below, each of the molecules is paired with its reported Plant response rating, Crabgrass, Large value.
- Tested on: crabgrass, large (large crabgrass, Digitaria sanguinalis)
- assay: Test A pre-/postemergence: crabgrass, large
- Format: in vivo
- condition_notes: Preemergence, 125 g ai/ha; 0 to 100 scale where 0 is no effect and 100 is complete control

molecule | Plant response rating, Crabgrass, Large
CC(C)c1nn(-c2ccc(F)cc2)nc1Cc1ccnc(C(F)(F)F)c1 [Compound 151] | 0
CC(C)(C)c1nn(-c2ccc(F)cc2)nc1C(=O)c1ccnc(C(F)(F)F)c1 [Compound 175] | 0
CCOc1nn(-c2ccc(F)cc2)nc1Cc1ccnc(C(F)F)c1 [Compound 195] | 100
Cc1nn(-c2ccc(C(F)(F)F)cn2)nc1C(=NO)c1cccc(C(F)(F)F)c1 [Compound 201] | 0
Cc1nn(-c2ccc(F)cc2)nc1Oc1cc(C(F)(F)F)ccn1 [Compound 128] | 0
CCc1nn(-c2ccc(F)cc2F)nc1Oc1ccnc(C(F)(F)F)c1 [Compound 178] | 90
Cc1nn(-c2ccc(F)c(F)c2)nc1Oc1ccnc(C(F)(F)F)c1 [Compound 145] | 100

---

- System: corn (Zea mays)
- assay: Test A pre-/postemergence: corn
- Type: in vivo
- condition_notes: Postemergence, 125 g ai/ha; 0 to 100 scale, 0 is no effect, 100 is complete control
Below, each of the compounds is paired with its reported Corn plant response rating value.

compound | test_system | Corn plant response rating
COc1nn(-c2ccc(F)cc2)nc1Oc1ccnc(C(F)(F)F)c1 [Compound 34] | corn (Zea mays) | 10
Cc1nn(-c2cccc(C(F)(F)F)c2)nc1Oc1cc(C(F)(F)F)ncn1 [Compound 38] | corn (Zea mays) | 0
Cc1nn(-c2ccccc2I)nc1C(=O)c1cccc(C(F)(F)F)c1 [Compound 91] | corn (Zea mays) | 10
Cc1nn(-c2ccc(C(F)(F)F)cn2)nc1Cn1nc(C(F)(F)F)cc1C [Compound 21] | corn (Zea mays) | 0
Cc1nn(-c2ccc(F)cc2Cl)nc1Cc1ccnc(C(F)(F)F)c1 [Compound 65] | corn (Zea mays) | 10
COc1nn(-c2ccc(C(F)(F)F)cc2)nc1Cc1cccc(C(F)(F)F)c1 [Compound 29] | corn (Zea mays) | 20
Cc1nn(-c2ccc(C(F)(F)F)cc2)nc1Oc1ccc(Cl)c(C(F)(F)F)c1 [Compound 103] | corn (Zea mays) | 0
Cc1nn(-c2ccc(F)cc2)nc1Oc1ccnc(OCC(F)(F)F)c1 [Compound 71] | corn (Zea mays) | 0
Cc1nn(-c2cccc(C(F)(F)F)c2)nc1Oc1cccc(C(F)(F)F)c1 [Compound 70] | corn (Zea mays) | 10

---

- System: nutsedge, yellow (yellow nutsedge, Cyperus esculentus)
- assay: Test C pre-/postemergence: nutsedge, yellow
- Type: in vivo
- condition_notes: Preemergence, 250 g ai/ha; scale 0 to 100, 0 no effect, 100 complete control
Below, each of the molecules is paired with its reported Plant response rating, Nutsedge, Yellow value.

structure_string | Plant response rating, Nutsedge, Yellow
CCCc1nn(-c2ccc(C(F)(F)F)c(F)c2)nc1Oc1ccnc(C(F)(F)F)c1 | 5
Cc1nn(-c2ccc(C(F)(F)F)cc2)nc1Cc1ccnc(C(F)(F)F)c1 | 0
Cc1nn(-c2ccc(F)cc2)nc1Oc1ccnc(C(F)(F)F)c1 | 5
Fc1ccc(-n2nc(Cc3ccnc(C(F)(F)F)c3)c(OCC(F)(F)F)n2)cc1 | 0
CCOc1nn(-c2ccc(F)cc2)nc1Cc1ccnc(C(F)F)c1 | 80
